Data provenance: PubChem BioAssay (NCI)

System: M14 melanoma
Assay Info: NCI-60 one-dose screen, 48 h (100 = growth as untreated, 0 = no growth, -100 = all killed)
Protocol Conditions: 10 µM
Description: Growth inhibition of the M14 human tumor cell line is measured as a screen for anti-cancer activity. Cells are grown in 96 well plates and exposed to the test compound for 48 hours. Compounds are tested at a single concentration, which is 10^-5 M for most compounds. The reported endpoint is percent growth (GI% or GIPRCNT), where numbers from 0 - 100% represent growth inhibition, and numbers from -100% - 0 represent cell death. For example, a value of 40 represents 60% growth inhibition. […]
This is part of a sample that, as a whole, favours compounds with a hit. Of some 83,000 tested, about 20% had one in any assay.
Classify as follows. Reported growth greater than or equal to 90%: T. Reported growth below: F.

### Prompt Check the entry N#Cc1c(-c2ccc(Cl)cc2)csc1NC(=O)Nc1ccc(Cl)c(C(F)(F)F)c1 : does growth equal or exceed 90%?
### Response F

### Prompt Determine whether this molecule has growth no lower than 90%: CCCCc1oc2ccccc2c1C(=O)c1cc(I)c(OCCN(CC)CC)c(I)c1
### Response F

### Prompt For this molecule, is measured growth 90% or higher? Cc1c(O)c(=O)ccn1C1CCC(CC2CCC(n3ccc(=O)c(O)c3C)CC2)CC1 (configuration not stated)
### Response F

### Prompt Does growth meet or surpass 90% for O=C(Nc1nc(-c2ccccc2)nc2c1sc(=S)n2-c1ccccc1)C(F)(F)F ?
### Response T

### Prompt Tell me whether growth is at least 90% here: Clc1ccc(Cc2ccncc2)cc1
### Response T

### Prompt Would you say Cc1ccc(-c2c3c(N)nc(-c4cccnc4)nc3nc3c2c(C)nn3-c2ccccc2)cc1 shows growth at minimum 90%?
### Response T

### Prompt Check this molecule for growth at or above 90%: CCCCC/C=C/C/C=C/CCCCCCCC1=NC(C)(C)CN1C(C)C
### Response F

### Prompt Item COc1cc(C(=O)/C=C/c2c[nH]c3ccccc23)cc(OC)c1OC with growth of 90% or above?
### Response F

### Prompt Given the entry CCc1cc(Cl)c(OC)c(C(=O)NCC2CCCN2CC)c1O (configuration not stated) , answer whether its growth meets or surpasses 90%.
### Response T

### Prompt Please check the record C=CCn1c(SCC(=O)Nc2ccc(C(=O)/C=C/c3cc(OC)c(OC)c(OC)c3)cc2)nnc1-c1cc(-c2ccc(Cl)cc2)nc2ccccc12 and state if its growth is at or above 90%.
### Response T

### Prompt Test whether the molecule C[n+]1c2ccccc2nc2ccccc21 records growth of 90% or higher.
### Response F

### Prompt Hi, just wondering whether O=C(Nc1ccc2c(O)cc(S(=O)(=O)O)cc2c1)c1ccc([N+](=O)[O-])cc1 shows growth of 90% or higher.
### Response T

### Prompt Could you verify whether the entry CC(=O)N[C@H](C(=O)N[C@@H](CCCNC(=N)N)C(=O)N[C@@H](CCCCN)C(=O)N[C@@H](CCCNC(=N)N)C(=O)N[C@]1(C)CCCCCC/C=C\CCC[C@@](C)(C(=O)N[C@@H](CCCNC(=N)N)C(=O)N[C@@H](CCC(=O)O)C(=O)N[C@@H](CC(C)C)C(=O)N[C@H](C(=O)N[C@@H](CCC(=O)O)C(N)=O)C(C)C)NC(=O)[C@H](CCC(N)=O)NC(=O)[C@H](CC(C)C)NC(=O)[C@H](CC(C)C)NC(=O)[C@H](CCCNC(=N)N)NC(=O)[C@H](CCCNC(=N)N)NC(=O)[C@H](CC(C)C)NC1=O)C(C)C shows growth of no less than 90%?
### Response F

### Prompt Given the entry CC(=O)C1N=NCC1c1ccccc1 (configuration not stated) , answer whether its growth meets or surpasses 90%.
### Response T

### Prompt Hi team, for O=C1c2ccccc2-c2c1c1cccnc1c(=O)n2C[C@H](O)CO , is the recorded growth at or above 90%?
### Response F
